src = paper PMC7288052

experiment: stability against proteolysis in human plasma by HPLC/MS; format: in vitro ADME; conditions: same conditions, control sample, read-out: half-life time (T1/2) in human plasma (converted)
assayMetric: half-life at […] (min)
Write the answer as a number in min, unit excluded.

Entry NC(=O)[C@H](Cc1ccccc1)NC(=O)[C@H](Cc1ccccc1)NC(=O)[C@@H]1CCCN1C(=O)[C@@H](N)Cc1ccc(O)cc1 [endomorphin-2, Tyr-Pro-Phe-Phe-NH2, reference compound] — recorded half-life at […] = 30

----------
# pIC50 annotations
biological target: μ-opioid receptor (μOR) (Rattus norvegicus); construct: from tissue; host or cells: rat brain homogenate (membrane fractions); experiment: competitive radioligand displacement assay, μOR, [3H]DAMGO, rat brain homogenate membranes; type: binding; details: radioligand 0.5 nM [3H]DAMGO; rat brain homogenate; mean of three determinations in duplicate; read-out: IC50 ± S.E.M. μOR
Sequence (P33535 whole entry): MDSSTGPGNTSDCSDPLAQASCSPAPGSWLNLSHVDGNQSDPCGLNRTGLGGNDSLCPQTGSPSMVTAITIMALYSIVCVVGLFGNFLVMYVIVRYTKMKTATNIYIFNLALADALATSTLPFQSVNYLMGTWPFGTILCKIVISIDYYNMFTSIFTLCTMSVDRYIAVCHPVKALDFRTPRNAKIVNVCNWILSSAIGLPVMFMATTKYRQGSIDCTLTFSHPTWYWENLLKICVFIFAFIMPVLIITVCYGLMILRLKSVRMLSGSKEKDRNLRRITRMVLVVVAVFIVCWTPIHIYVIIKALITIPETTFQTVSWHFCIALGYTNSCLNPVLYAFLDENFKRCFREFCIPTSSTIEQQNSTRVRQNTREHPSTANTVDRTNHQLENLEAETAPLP
FYI, pIC50 means -log10 of a concentration in mol per litre.

Solved entries:
C[C@@H](NC(=O)[C@H](CN)Cc1ccc(O)cc1)C(=O)N[C@@H](Cc1ccccc1)C(=O)N[C@@H](Cc1ccccc1)C(N)=O [compound 13, [(S)-β^2hTyr^1]-TAPP*]    6.47
C[C@@H](NC(=O)[C@@H](CN)Cc1ccc(O)cc1)C(=O)N[C@@H](Cc1ccccc1)C(=O)N[C@@H](Cc1ccccc1)C(N)=O [compound 8, [(R)-β^2hTyr^1]-TAPP*]    7.11
C[C@@H](NC(=O)[C@H](CN)Cc1cccc(O)c1)C(=O)N[C@@H](Cc1ccccc1)C(=O)N[C@@H](Cc1ccccc1)C(N)=O [compound 14, [(S)-β^2h-m-Tyr^1]-TAPP*]    7.95

Now for a further compound.
Entry C[C@@H](NC(=O)[C@@H](CN)Cc1cccc(O)c1)C(=O)N[C@@H](Cc1ccccc1)C(=O)N[C@@H](Cc1ccccc1)C(N)=O [compound 9, [(R)-β^2h-m-Tyr^1]-TAPP*] — recorded pIC50 = 7.31

----------
# half-life annotations
Experiment: stability against proteolysis in human plasma by HPLC/MS
Type: in vitro ADME
Settings: 37 °C, read-out: half-life time (T1/2) in human plasma (converted)
Procedure: The results are graphically presented in Figure 7 and the representative HPLC chromatograms are given in Figures SM-STAB-1 to SM-STAB-22 in Supplementary Materials. […] The determination of plasma stability was performed according to a previously described protocol with minor modifications. […] Samples of the test solution were taken and analyzed at several time points (0, 1, 2, 3, 4, 5, 6, 12, 24, 48, and 96 h of the experiment). […]

C[C@@H](CNC(=O)[C@@H](N)Cc1ccc(O)cc1)C(=O)N[C@@H](Cc1ccccc1)C(=O)N[C@@H](Cc1ccccc1)C(N)=O [compound 10, [(S)-β^2hAla^2]-TAPP]    ~4.5 h

Entry C[C@H](CNC(=O)[C@@H](N)Cc1ccc(O)cc1)C(=O)N[C@@H](Cc1ccccc1)C(=O)N[C@@H](Cc1ccccc1)C(N)=O [compound 15, [(R)-β^2hAla^2]-TAPP] — recorded half-life = ~4.5 h

----------
assay: stability against proteolysis in human plasma by HPLC/MS; format: in vitro ADME; conditions: 37 °C, read-out: half-life time (T1/2) in human plasma (converted)
assayMetric: half-life at […]

Entry C[C@@H](NC(=O)[C@@H](N)Cc1ccc(O)cc1)C(=O)NC[C@@H](Cc1ccccc1)C(=O)N[C@@H](Cc1ccccc1)C(N)=O [compound 11, [(R)-β^2hPhe^3]-TAPP] — recorded half-life at […] = ~40 h

----------
# remaining at 96 h, 350 µM annotations
experiment: stability against proteolysis in human plasma by HPLC/MS; format: in vitro ADME; details: 37 °C, 96 h, read-out: C96h, percent of the initial peptide concentration remaining after 96 h
Residues, ends and D or L forms follow the SMILES beside them.

Solved entries:
C[C@@H](NC(=O)[C@@H](N)Cc1ccc(O)cc1)C(=O)N[C@@H](Cc1ccccc1)C(=O)N[C@@H](Cc1ccccc1)C(N)=O [compound 1, H-Tyr-D-Ala-Phe-Phe-NH2, reference compound] (HELM PEPTIDE1{Y.[dA].F.F.[am]}$$$$V2.0)    > 90%
C[C@@H](NC(=O)[C@@H](N)Cc1ccc(O)cc1)C(=O)N[C@@H](Cc1ccccc1)C(=O)NC[C@H](Cc1ccccc1)C(N)=O [compound 17, [(S)-β^2hPhe^4]-TAPP]    ~90%
C[C@@H](NC(=O)[C@@H](N)Cc1ccc(O)cc1)C(=O)NC[C@H](Cc1ccccc1)C(=O)N[C@@H](Cc1ccccc1)C(N)=O [compound 16, [(S)-β^2hPhe^3]-TAPP]    > 65%

Entry C[C@@H](NC(=O)[C@@H](N)Cc1ccc(O)cc1)C(=O)N[C@@H](Cc1ccccc1)C(=O)NC[C@@H](Cc1ccccc1)C(N)=O [compound 12, [(R)-β^2hPhe^4]-TAPP] — recorded remaining at 96 h, 350 µM = 55%

----------
Target: δ-opioid receptor (δOR) (Rattus norvegicus, UniProt P33533)
Construct: from tissue; host or cells: rat brain homogenate (membrane fractions)
Sequence (P33533 whole entry): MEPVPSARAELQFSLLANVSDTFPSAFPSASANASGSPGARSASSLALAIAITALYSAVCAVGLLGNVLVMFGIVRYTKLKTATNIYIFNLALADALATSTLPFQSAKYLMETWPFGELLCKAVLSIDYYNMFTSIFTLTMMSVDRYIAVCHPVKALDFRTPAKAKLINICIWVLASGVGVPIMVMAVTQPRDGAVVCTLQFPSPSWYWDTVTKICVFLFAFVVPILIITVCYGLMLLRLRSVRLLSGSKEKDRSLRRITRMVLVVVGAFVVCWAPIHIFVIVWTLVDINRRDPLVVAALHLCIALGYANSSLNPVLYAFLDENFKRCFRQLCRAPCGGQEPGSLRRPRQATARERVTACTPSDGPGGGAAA
Experiment: competitive radioligand displacement assay, δOR, [3H]DELT II, rat brain homogenate membranes
Type: binding
Protocol: The determinations were performed by a competitive radioligand displacement assay with selective radioligands. Membrane fractions of rat brain Homogenate were incubated at 25 °C for 60 mins in the presence of radioligands (0.5 nM) specific for each receptor (μOR: [^3H]DAMGO and δOR: [^3H]DELT II, obtained as a generous gift from Prof. Géza Tóth) and the increasing concentrations of the tested compounds (10^−11 up to 10^−5 M, each concentration in duplicate). […]
Residues, ends and D or L forms follow the SMILES beside them.
# IC50 annotations
Write the answer as a number in nM, unit excluded.

Item C[C@@H](NC(=O)[C@@H](N)Cc1ccc(O)cc1)C(=O)N[C@@H](Cc1ccccc1)C(=O)N[C@@H](Cc1ccccc1)C(N)=O [compound 1, H-Tyr-D-Ala-Phe-Phe-NH2, reference compound] (HELM PEPTIDE1{Y.[dA].F.F.[am]}$$$$V2.0) was tested on δ-opioid receptor (δOR) (Rattus norvegicus, UniProt P33533); the reported IC50 is 616

Item C[C@@H](NC(=O)[C@@H](N)Cc1ccc(O)cc1)C(=O)N[C@@H](Cc1ccccc1)C(=O)NC[C@H](Cc1ccccc1)C(N)=O [compound 17, [(S)-β^2hPhe^4]-TAPP] was tested on δ-opioid receptor (δOR) (Rattus norvegicus, UniProt P33533); the reported IC50 is 417

Item C[C@@H](NC(=O)[C@@H](N)Cc1ccc(O)cc1)C(=O)NC[C@@H](Cc1ccccc1)C(=O)N[C@@H](Cc1ccccc1)C(N)=O [compound 11, [(R)-β^2hPhe^3]-TAPP] was tested on δ-opioid receptor (δOR) (Rattus norvegicus, UniProt P33533); the reported IC50 is 794

Item C[C@@H](NC(=O)[C@@H](N)Cc1ccc(O)cc1)C(=O)NC[C@H](Cc1ccccc1)C(=O)N[C@@H](Cc1ccccc1)C(N)=O [compound 16, [(S)-β^2hPhe^3]-TAPP] was tested on δ-opioid receptor (δOR) (Rattus norvegicus, UniProt P33533); the reported IC50 is 890

Item C[C@@H](NC(=O)[C@@H](N)Cc1ccc(O)cc1)C(=O)N[C@@H](Cc1ccccc1)C(=O)NC[C@@H](Cc1ccccc1)C(N)=O [compound 12, [(R)-β^2hPhe^4]-TAPP] was tested on δ-opioid receptor (δOR) (Rattus norvegicus, UniProt P33533); the reported IC50 is 708

----------
target: μ-opioid receptor (μOR) (Rattus norvegicus); construct: from tissue; host or cells: rat brain homogenate (membrane fractions); assay: competitive radioligand displacement assay, μOR, [3H]DAMGO, rat brain homogenate membranes; format: binding
assayMetric: IC50 (µM)
Write the answer as a number in µM, unit excluded.

Entry C[C@@H](NC(=O)[C@@H](N)Cc1ccc(O)cc1)C(=O)N[C@@H](Cc1ccccc1)C(=O)NC[C@@H](Cc1ccccc1)C(N)=O [compound 12, [(R)-β^2hPhe^4]-TAPP] — recorded IC50 = 0.0019

Entry C[C@@H](NC(=O)[C@@H](N)Cc1ccc(O)cc1)C(=O)N[C@@H](Cc1ccccc1)C(=O)NC[C@H](Cc1ccccc1)C(N)=O [compound 17, [(S)-β^2hPhe^4]-TAPP] — recorded IC50 = 0.0078

Entry C[C@@H](NC(=O)[C@@H](N)Cc1ccc(O)cc1)C(=O)NC[C@H](Cc1ccccc1)C(=O)N[C@@H](Cc1ccccc1)C(N)=O [compound 16, [(S)-β^2hPhe^3]-TAPP] — recorded IC50 = 0.0155

Entry C[C@@H](NC(=O)[C@@H](N)Cc1ccc(O)cc1)C(=O)NC[C@@H](Cc1ccccc1)C(=O)N[C@@H](Cc1ccccc1)C(N)=O [compound 11, [(R)-β^2hPhe^3]-TAPP] — recorded IC50 = 0.0954
